Molecular target: ATP-binding cassette sub-family B member 6 (Homo sapiens)
Experiment: blockers of ABCB6-driven porphyrin uptake – K562-ABCB6 cells, flow cytometry, validation set, pilot screen (AID 588550);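 further: 0% = DMSO wells and 100% = benzethonium chloride 70 µM positive control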
Conditions: K562-ABCB6 porphyrin accumulation, 1 h, at 10 µM, hits give high values
assay endpoint: inhibition (%)
Only the number, expressed in %, is required.

Sample answers from the record:
COc1ccc(-c2coc3c(CN4CCOCC4)c(O)ccc3c2=O)cc1 | -5
CCOc1ccc(C(=O)C(C)=O)c(OCC)c1 | 19
O=C(Cc1ccccc1[N+](=O)[O-])NCCCN1CCOCC1 | 2
O=C1C(=O)c2ccccc2C(O)=C1c1ccccc1F | 5
CC1CCCC(C)N1NC(=O)c1ccc(Cl)c(S(N)(=O)=O)c1 (configuration not stated) | 10
COc1ccc(-c2cc(C(=O)N3CCOCC3)c3cc(C)ccc3n2)cc1 | 7
CCn1nc(C(=O)O)c(=O)c2cc3c(cc21)OCO3 | -8
CN/C(=C/[N+](=O)[O-])NCCSCc1ccc(CN(C)C)o1 | 14

Any idea what inhibition was measured for "Cc1cc(OCC(=O)C(C)(C)C)c2c(C)c(C)c(=O)oc2c1" ?
3
